Test system: P388 leukemia ip, CD2F1 mice, survival T/C
testDetails: NCI In Vivo Anticancer Drug Screen. Data for tumor model P388 Leukemia (intraperitoneal) in CD2F1 (CDF1) mice
settings: endpoint: median survival time; dose: 100.0 mg/kg/injection; schedule: Q01DX009 (ip); vehicle: saline; higher = longer survival
Procedure: The antitumor activity of compounds was measured in mice bearing transplantable tumors. Survival or tumor size were measured and the results are expressed as the measurement made in the treated group (T) divided by the measurement made in the vehicle treated control group (C). The tumor model used in this assay is P388 Leukemia (intraperitoneal) in CD2F1 (CDF1) mice
Toxic doses and inconclusive results are not listed.
Listing of entries alongside the reported T/C.
testReadout: T/C

1. CC(=O)CS(C)(=O)=O :: 101 % of control
2. Cc1ccc(S(=O)(=O)N/N=C(\Cc2ccccc2)c2ccc(Br)cc2)cc1 :: 98 % of control
3. CCC(C)C(NC(=O)CCl)C(=O)O (stereo not drawn) :: 96 % of control
4. NCCNCCNCCNCCN (tested in a mixture with another compound) :: 100 % of control
5. CN1CCN(c2ccncc2S(=O)(=O)N2CCCC2)CC1 :: 104 % of control
6. O=[N+]([O-])c1ccc(C2OC(c3ccncc3)=NC2CO)cc1 (stereo not drawn) :: 91 % of control
7. CN(C)c1cc2nc3ccccc3nc2cc1O :: 92 % of control
8. CC1N=C(SCC(=O)c2ccc(Cl)cc2)N2C(C)N=C(SCC(=O)c3ccc(Cl)cc3)N12 (stereo not drawn) :: 90 % of control
9. COc1cc2c(cc1OC)C1C(O)C(OC)C(O)C3=CCN(C2)C31 (stereo not drawn) :: 104 % of control
10. S=C(Nc1ccccc1)SCc1ccc(Cl)cc1 :: 103 % of control
11. CCC1=NC(C)(C)CO1 :: 97 % of control
12. N#CCC(=O)NCc1ccncc1 :: 108 % of control
13. CC1(c2ccc3ccccc3c2)C(C#N)(C#N)C1(C#N)C#N :: 103 % of control
14. CNC/C=C/CN(C)C(=S)S :: 92 % of control
15. C(=Nc1ccccc1-c1ccccc1N=Cc1ccccc1)c1ccccc1 :: 96 % of control
16. CCc1cn[nH]c(=O)c1 :: 96 % of control
17. COc1ccc(CSC(=S)Nc2ccc(C)c(Br)c2)cc1 :: 97 % of control
18. Cc1ccc(C(=O)CCN(C)C)cc1 :: 107 % of control
19. C[CH2][Ge]([CH2]C)[CH2]C.C[CH2][Ge]([CH2]C)[CH2]C.[CH3][Ge][CH3] :: 90 % of control
20. CCOC(=O)N1CCN(CCCCCOc2ccc(CC(C)(C)C)cc2Cl)CC1 :: 113 % of control
21. CCOC(=O)NCCCCC(N)C(=O)O (stereo not drawn) :: 102 % of control
22. NC(CCl)C(=O)NO (stereo not drawn) :: 96 % of control
23. CC(=O)NC(Cc1cnc[nH]1)C(C)=O (stereo not drawn) :: 98 % of control
24. O=C1CCC2=C3C4CCCC5OC6CC(=O)CCC6=C(C6CCCC(OC2C1)C36)C54 (stereo not drawn) :: 100 % of control
25. CCCCN(CCCC)CCNc1ccc(C)c2sc3ccccc3c(=O)c12 :: 100 % of control
26. O=CNc1ccn[nH]1 :: 101 % of control
27. COc1ccc(/C=N/NC(=O)C(=O)N/N=C/c2ccc(OC)c(S(=O)(=O)O)c2)cc1S(=O)(=O)O :: 104 % of control
28. CCc1cccc(CC)c1N1C(=O)CSCC1=O :: 93 % of control
29. CNc1c(NC)n(C)c(=O)n(C)c1=O :: 109 % of control
30. CC(=O)Nc1ccc(S(=O)(=O)NC(C)=O)cc1 :: 100 % of control
31. CN(C)P1(N(C)C)=NP(N(C)C)(N(C)C)=NP(N(C)C)(N(C)C)=N1 :: 96 % of control
32. CC1(C)Oc2cc3oc(C(=O)O)cc(=O)c3cc2-c2ccccc21 :: 96 % of control
33. CCCNC(=S)NN1C2CSC1CS2 :: 99 % of control
34. CSC(=S)N/N=C(\C)c1ccccn1 :: 92 % of control
35. O=C(CO)N(CCO)CCO :: 95 % of control
36. CC1C(=O)C(C)C(c2ccccc2Cl)OC1c1ccccc1Cl (stereo not drawn) :: 102 % of control
37. COP1(OC)(OC)OC(C)=C(C)O1 :: 94 % of control
38. CC(Nc1ccc(Cl)cc1)S(=O)(=O)O (stereo not drawn) :: 100 % of control

Hey, just so you know, these numbers are from PubChem BioAssay AID330.
